src = patent US20220118117A1

- assayMethodText: solution stability
- Type: physicochemical
- statedConditions: pH = 9.4, 37° C.
experimentalReadout: The solution stability, The intact ± SEM at 120 min (%)

smilesStructure: CSc1cc(NC(=O)c2ccccn2)ccc1Cl
endpointValue: 89.3
--
smilesStructure: [2H]C([2H])(F)Sc1cc(NC(=O)c2ccccn2)ccc1Cl
endpointValue: 84.3
--
smilesStructure: COc1ccc([C@@H]2Sc3ccccc3N(CCN(C)C)C(=O)[C@@H]2OC(C)=O)cc1
endpointValue: 69.8
--
smilesStructure: COc1cc(NC(=O)c2ccccn2)ccc1Cl
endpointValue: 89.1

====

- assayMethodText: plasma stability
- Type: in vitro ADME
- statedConditions: rat plasma, 37° C., 60 min
experimentalReadout: Plasma stability, remaining of the intact test compound (%)

Below are worked cases with known answers.
smilesStructure: COc1cc(NC(=O)c2ccccn2)ccc1Cl
endpointValue: 100.35

smilesStructure: CSc1cc(NC(=O)c2ccccn2)ccc1Cl
endpointValue: 93.62

(I) [2H]C([2H])(F)Sc1cc(NC(=O)c2ccccn2)ccc1Cl
(II) COc1ccc([C@@H]2Sc3ccccc3N(CCN(C)C)C(=O)[C@@H]2OC(C)=O)cc1
Request: Min Plasma stability, remaining of the intact test compound? I | II Give the label under which the chosen entry appears.
Result: II
(II: 58.91%, I: 94.54%)

====

- assayMethodText: plasma stability
- Format: in vitro ADME
- statedConditions: rat plasma, 37° C., 120 min
experimentalReadout: Plasma stability, remaining of the intact test compound (%)

Below are worked cases with known answers.
smilesStructure: CSc1cc(NC(=O)c2ccccn2)ccc1Cl
unitDescriptor: %
endpointValue: 91.52
//
smilesStructure: COc1cc(NC(=O)c2ccccn2)ccc1Cl
unitDescriptor: %
endpointValue: 98.21

(I) [2H]C([2H])(F)Sc1cc(NC(=O)c2ccccn2)ccc1Cl
(II) COc1ccc([C@@H]2Sc3ccccc3N(CCN(C)C)C(=O)[C@@H]2OC(C)=O)cc1
Request: Min Plasma stability, remaining of the intact test compound? I | II Give the label under which the chosen entry appears.
Result: II

====

- assayMethodText: plasma stability
- Format: in vitro ADME
- statedConditions: rat plasma, 37° C., 30 min
experimentalReadout: Plasma stability, remaining of the intact test compound (%)

smilesStructure: CSc1cc(NC(=O)c2ccccn2)ccc1Cl
endpointValue: 95.27

smilesStructure: [2H]C([2H])(F)Sc1cc(NC(=O)c2ccccn2)ccc1Cl
endpointValue: 104.21

smilesStructure: COc1ccc([C@@H]2Sc3ccccc3N(CCN(C)C)C(=O)[C@@H]2OC(C)=O)cc1
endpointValue: 75.23

smilesStructure: COc1cc(NC(=O)c2ccccn2)ccc1Cl
endpointValue: 97.56

====

- assayMethodText: solution stability
- Assay type: physicochemical
- statedConditions: pH = 7.4, 37° C.
experimentalReadout: The solution stability, The intact ± SEM at 120 min (%)

molecule: COc1ccc([C@@H]2Sc3ccccc3N(CCN(C)C)C(=O)[C@@H]2OC(C)=O)cc1 [Diltiazem]
unitDescriptor: %
endpointValue: 99.0
--
molecule: COc1cc(NC(=O)c2ccccn2)ccc1Cl [Compound 4]
unitDescriptor: %
endpointValue: 97.3
--
molecule: [2H]C([2H])(F)Sc1cc(NC(=O)c2ccccn2)ccc1Cl [Compound 15]
unitDescriptor: %
endpointValue: 88.3
--
molecule: CSc1cc(NC(=O)c2ccccn2)ccc1Cl [Compound 13]
unitDescriptor: %
endpointValue: 87.9
